# subject-of-test: T1, class I MHC receptor HLA-A2 on T2 cells (human)
# T1 construct: detected on the cell surface with a mouse anti-human HLA-A2 monoclonal antibody and goat anti-mouse IgG F(ab')2-FITC; also called HLA-A2 receptor; HLA-A2 class I MHC
# protocol-details: T2 cells, anti-HLA-A2 flow cytometry after brefeldin A; Assay #1; 6 hr
measure-name: fluorescence index (F.I.)

Please review the following examples before continuing.
INSERT INTO measurements (binder, measure_name, assay_result) VALUES
  ('GLAPLEVRV [Filamin B peptide #3]', 'fluorescence index', 4.27),
  ('KLILGLVWT [Filamin B peptide #7]', 'fluorescence index', 1.09),
  ('GQGDVMVFV [Filamin B peptide #6]', 'fluorescence index', 1.23);

1: SLQESGLKV [Filamin B peptide #4]
2: LILGLVWTL [Filamin B peptide #1]
stdin: Would you kindly point out which of 1 and 2 has the smaller fluorescence index figure? Returns: label corresponding to the selected item.
stdout: 1

Reference source: patent US20090053750A1
